assay-name: in vivo
condition-info: male, Holstein, bovine, serum, po, 235 mg
outcome-measure: Tmax (h)

O=C(O)CCC(=O)Nc1ccccc1 : 6
